Cited source: patent US20220396632A1

Molecular target: T1, Recombinant human PSGL-1(ECD)-hFc1 (R&D Systems, Cat. 3345-PS) (human, UniProt Q14242 42-305)
T1 construct: Bought; Gln42-Val295 counted on AAC50061; also called PSGL-1-Fc; PSGL-1-hFc1 chimera; not shown: human IgG1 Fc, Pro100-Lys330
T1 sequence: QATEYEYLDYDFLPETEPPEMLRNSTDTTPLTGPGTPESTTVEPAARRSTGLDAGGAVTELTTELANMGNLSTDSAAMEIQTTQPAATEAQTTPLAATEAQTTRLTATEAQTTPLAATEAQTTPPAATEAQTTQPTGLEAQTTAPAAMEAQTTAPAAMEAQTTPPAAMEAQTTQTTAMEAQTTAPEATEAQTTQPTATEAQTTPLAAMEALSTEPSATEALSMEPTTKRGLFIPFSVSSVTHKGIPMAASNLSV
Assay: ELISA, plate-bound target

Binder	EC50
16L15 (antibody, V domains shown, From mouse immunisation; only variable domains given) VH: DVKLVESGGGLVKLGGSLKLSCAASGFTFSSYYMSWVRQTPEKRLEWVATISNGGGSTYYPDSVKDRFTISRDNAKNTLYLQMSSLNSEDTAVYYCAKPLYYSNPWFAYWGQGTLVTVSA VL: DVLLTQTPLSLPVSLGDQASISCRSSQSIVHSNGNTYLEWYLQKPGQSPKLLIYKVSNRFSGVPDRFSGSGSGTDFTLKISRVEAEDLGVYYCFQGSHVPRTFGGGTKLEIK	960 pM
